Source listed as the NIST ThermoML archive (doi:10.1016/j.jct.2018.10.015).

condition.parameters: 293.15 K; 101.3 kPa; Liquid; Concentric cylinders viscometry
assay.readout: viscosity (mPa·s)
Numeric only. Scale: mPa·s

{"compound": "CCOC(=O)OCC [diethyl carbonate]", "assay.readout": "viscosity", "unit.text": "mPa·s", "reported.value": 0.805}

Q: Quick one: viscosity of `CCCCn1cc[n+](C)c1C.O=S(=O)([N-]S(=O)(=O)C(F)(F)F)C(F)(F)F` ?
Result: 133.6

Q: Need viscosity of COC(=O)OC [dimethyl carbonate] , thanks.
Result: 0.629
